assay_target: T1, mouse IL-12Rβ2 expressed on cells (mouse, UniProt P97378 24-874)
T1 construct: HEK293T cells, stably transduced (cDNA NM_008354); also called mIL-12RB2
T1 sequence: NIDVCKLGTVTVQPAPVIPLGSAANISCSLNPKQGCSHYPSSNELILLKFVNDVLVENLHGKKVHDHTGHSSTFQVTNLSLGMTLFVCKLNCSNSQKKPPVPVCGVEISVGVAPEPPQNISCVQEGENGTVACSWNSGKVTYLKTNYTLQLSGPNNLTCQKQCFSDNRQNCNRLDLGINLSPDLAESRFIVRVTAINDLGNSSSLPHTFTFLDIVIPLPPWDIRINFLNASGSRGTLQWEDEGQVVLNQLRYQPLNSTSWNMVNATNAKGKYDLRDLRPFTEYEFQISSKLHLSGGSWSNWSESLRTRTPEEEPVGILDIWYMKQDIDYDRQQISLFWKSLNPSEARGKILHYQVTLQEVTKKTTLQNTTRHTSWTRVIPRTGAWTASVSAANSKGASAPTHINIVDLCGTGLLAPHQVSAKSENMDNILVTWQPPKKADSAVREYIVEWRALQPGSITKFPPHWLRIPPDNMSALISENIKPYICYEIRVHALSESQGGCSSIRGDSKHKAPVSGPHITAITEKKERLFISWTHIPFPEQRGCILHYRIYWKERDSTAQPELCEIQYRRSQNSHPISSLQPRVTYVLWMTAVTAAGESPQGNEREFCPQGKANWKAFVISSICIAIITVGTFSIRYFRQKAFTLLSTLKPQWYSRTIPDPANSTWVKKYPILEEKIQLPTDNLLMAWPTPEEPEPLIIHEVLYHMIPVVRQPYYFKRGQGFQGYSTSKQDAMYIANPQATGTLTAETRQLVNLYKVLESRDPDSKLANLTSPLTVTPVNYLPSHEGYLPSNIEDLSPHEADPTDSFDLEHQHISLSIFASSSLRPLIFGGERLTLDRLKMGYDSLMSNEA
test_summary: flow cytometry, P.E. VHH on HEK293T cells stably expressing mIL-12RB2
Assignment: determine reported % cells bound for the given binders.
Give the number; % is assumed, so skip it.

The recorded % cells bound for anti-IL-12Rβ2 VHH clone 3CAM10 (VHH, not shown: small tags and cut ends, tested as periplasmic extract; also called 20507) VHH: QVQLQESGGGLVQAGGSLRLSCAASGRTFSDYPMAWFRQAPGKEREFVAGISNGGTAYYADSVKGRFTISRDNTRNTVYLQMNRLKVEDTAVYYCAAVHLLSNLRGADPHEADYWGQGTQVTVSS is 41.7

The recorded % cells bound for anti-IL-12Rβ2 VHH clone 2CAM18 (VHH, tested as periplasmic extract; also called 20475) VHH: QVQLQESGGGLVQVGDSLKLSCVASGTTFSTHVMAWYRQAPGKQREWVASIDSAGTTNYKDAVKGRFTISRDNVKRTVYLQMNNLKPEDSAVYLCSIPSRNAWGQGTQVTVSS is 3.19

The recorded % cells bound for anti-IL-12Rβ2 VHH clone 3CAM11 (VHH, not shown: small tags and cut ends, tested as periplasmic extract; also called 20508) VHH: QVQLQESGGGLVQAGGSLRLSCAASGRNLSTYAMGWIRQAPGKEREFVAAISWAGSTTYYADSVKGRFIISRDNAKNTLNLQMNSLKPEDTAVYYCAAPPYVTTTYYATPPSDIRDYHYWGQGTQVTVSS is 37.8

The recorded % cells bound for anti-IL-12Rβ2 VHH clone 3CRM45 (VHH, not shown: small tags and cut ends, tested as periplasmic extract; also called 20458) VHH: QVQLQESGGGLVQAGGSLRLSCTASGSIFAIDDMYWYRQAPGKEREFVAYITATNSANYLDSVNGRFTISRDNAKNSVYLQMNSLKPEDTAVYYCNAKQIVGFQIDEYWGQGTQVTVSS is 18.3

The recorded % cells bound for anti-IL-12Rβ2 VHH clone 3CAHM11 (VHH, not shown: small tags and cut ends, tested as periplasmic extract) VHH: QVQLQESGGGLVQAGGSLRLSCAASGRTFNNYAMAWFRQAPGKEREFIAAITRSDTTLYIDSVKGRFTISRDNAKNTVALQMNSLKPEDTAVYYCAAGMPYSYSDYPRDSKYDYWGRGTQVTVSS is 56.9

The recorded % cells bound for anti-IL-12Rβ2 VHH clone 3CRHM73 (VHH, not shown: small tags and cut ends, tested as periplasmic extract; also called 21060) VHH: QVQLQESGGGLVQAGGSLSLSCAASGSAFRLNFMGWYRQAPGKQRELVAAINSGGTEIYHDSVKGRFTISRDNADSTVWLQMNSLKPDDTAVYYCAADRGISWSKLAGGMDYWGKGTQVTVSS is 27.3

The recorded % cells bound for anti-IL-12Rβ2 VHH clone 3CRHM14 (VHH, not shown: small tags and cut ends, tested as periplasmic extract) VHH: QVQLQESGGGLVQAGGSLRLSCAASGRTFSNYAMAWFRQAPGTEREFVAGLSGSGGDTEFYDDSVKGRFAISRDSAKNTVWLQMNSLKPEDTAVYYCAAATHVVVHYGLVRRRGTYDYWGQGTQVTVSS is 26.2

The recorded % cells bound for anti-IL-12Rβ2 VHH clone 2CAM71 (VHH, not shown: small tags and cut ends, tested as periplasmic extract) VHH: QVQLQESGGGLVQAGGSLRLSCAASGRTLSNSVMGWFRQAPGKEREFVAALMWSAGSEFYTDSVKGRFSISGDGAKNTVYLQMNSLKAEDTAVYYCAAKNPPHRWSDIGKSPHYEYWGQGTQVTVSS is 58.3
